Assay: Selectivity index determined for CC50 (test I) to EC50 x 10e3
Format: functional
MEASURED PROPERTY: SI

Request the reported SI associated with NCCCC[C@@H]1NC(=O)[C@@H](CCCCN)NC(=O)[C@H](CCCNC(N)=O)NC(=O)[C@@H](Cc2ccc(O)cc2)NC(=O)[C@H](NC(=O)[C@@H](NC(=O)[C@H](CCCN=C(N)N)NC(=O)[C@@H](N)CCCN=C(N)N)c2ccc3ccccc3c2)CSSC[C@H](C(=O)N[C@@H](CCCN=C(N)N)C(N)=O)NC(=O)[C@H](CCCNC(N)=O)NC(=O)[C@H](CCCNC(N)=O)NC(=O)[C@H](Cc2ccc(O)cc2)NC(=O)[C@H]2CCCN2C1=O
> 15

What SI value was documented for this compound, NCCCC[C@H]1NC(=O)[C@H](CCCN=C(N)N)NC(=O)[C@@H](Cc2ccc(O)cc2)NC(=O)[C@H](NC(=O)[C@@H](NC(=O)[C@H](CCCN=C(N)N)NC(=O)[C@@H](N)CCCNC(N)=O)c2ccc3ccccc3c2)CSSC[C@H](C(=O)N[C@@H](CCCN=C(N)N)C(N)=O)NC(=O)[C@H](CCCNC(N)=O)NC(=O)[C@H](CCCN=C(N)N)NC(=O)[C@H](Cc2ccc(O)cc2)NC(=O)[C@H]2CCCN2C(=O)[C@H](CCCNC(N)=O)NC1=O ?
> 83

Fill in the blank: the reported SI of NCCCC[C@H]1NC(=O)[C@H](CCCN=C(N)N)NC(=O)[C@@H](Cc2ccc(O)cc2)NC(=O)[C@H](NC(=O)[C@@H](NC(=O)[C@H](CCCN=C(N)N)NC(=O)[C@@H](N)CCCN=C(N)N)c2ccc3ccccc3c2)CSSC[C@H](C(=O)N[C@@H](CCCN=C(N)N)C(=O)O)NC(=O)[C@H](CCCNC(N)=O)NC(=O)[C@H](CCCN=C(N)N)NC(=O)[C@H](Cc2ccc(O)cc2)NC(=O)[C@H]2CCCN2C(=O)[C@H](CCCNC(N)=O)NC1=O is ____.
> 20
